Where these numbers come from: PubChem BioAssay (NCI)

# System: MCF7 breast
# test.details: NCI tumour cell line growth inhibition, 48 h; in the data active = GI50 below about 0.43 µM; inactive = the rest
Answer with one of the outcomes true (1) for active, false (0) for inactive

Record excerpt, results attached:
Record lookup: outcome of this test for COc1ccc(Oc2cc(NCCC(F)(F)F)c3ncc(-c4ccc(C(=O)NC5CC5)c(C)c4)n3n2)c(F)c1F ?
false (0)

Record lookup: outcome of this test for O=C(Nc1cccc(-n2cc(-c3ccncc3)c(-c3ccc(O)c(Cl)c3)n2)c1)c1ccc(Cl)c(Cl)c1 ?
false (0)

Record lookup: outcome of this test for COc1ccc(C(=O)OC2C(OC3C(O)COC(O[C@H]4C[C@H]5[C@@H]6CC=C7C[C@@H](O)CC[C@]7(C)[C@H]6CC[C@]5(C)[C@H]4[C@H](C)C(=O)CCC(C)C)C3OC(C)=O)OCC(O)C2O)cc1 (stereo partly specified) ?
true (1)

Further cases:
Record lookup: outcome of this test for COc1ccc(-c2nc(-c3nc4ccc(C(F)(F)F)cc4[nH]3)c3ccccn23)cc1 ?
false (0)

Record lookup: outcome of this test for CCN1C(=O)N(CC)C2C1NN=c1s/c(=C\c3cccc([N+](=O)[O-])c3)c(=O)n12 (stereo unspecified) ?
true (1)

Record lookup: outcome of this test for COC(=O)/C(=C\c1c(-c2ccccc2)[nH]c2ccccc12)S(C)(=O)=O ?
false (0)
